Numbers sourced from the supplement of paper PMC11417369.

# System: PF3D7_0420300 AP2 domain 1 (GST-tagged)
# test.method.notes: gcPBM binding intensity (ln(normalized median fluorescence intensity)); higher = stronger DNA binding
The full ranking holds about 25,000 sequences; the median of “ln(normalized median fluorescence intensity)” is about 9.3, and the highest 2% start at about 10. This excerpt belongs to a sample that is enriched for the highest values.
Each entry below carries its recorded gcPBM binding intensity (ln).
outcome.measure: gcPBM binding intensity (ln)

1. GTAATAAGAATTATAGTGCAATGTAATACATTTATA
9.23
2. TTTCGTAAAATGAAATGTACTCAAAAGTAAATATAA [XGTACX_site214]
9.03
3. CACTAAAATAAACACACACACACACCGATATATATA [CACACA_site9379]
10.3
4. TACACAAACAGACACACACACACACGCGCACAAAAA [CACACA_site7192]
10.2
5. TACATAAATTAATAGTCACACACGTATTTTTTATAT [CACACA_site8806]
9.45
6. GGCATACACAGACACACACACACACCCACATATATA [CACACA_site591]
10.3
7. AAAAAAAAAAAAAAAAAAAAACACCCAAAAAAATAT [XGTACX_negctrl_site210]
9.62
8. ATATAAAGAAAAGGAACACACAAATATATATATATA [CACACA_site463]
9.57
9. AAAAAAAATTCACACTGTACAAAAGCATAAATAAAC [XGTACX_site5408]
9.75
10. TGGTAATACACATACACACACACATACACATATATA [CACACA_site7312]
10.2
11. AAATATAATAAAATGACACACGCATATATATATATA [CACACA_site8900]
9.38
12. TATATATATAAATACACACACACACCGATATATATA [CACACA_site5408]
10.1
13. TAAATACAGACATACACACATACACCCACATATATA [CACACA_site547]
9.95
14. CACTAAAATGGACACACACACACACCGATATATATA [CACACA_site6139]
10.2
15. ATAGACAGCGCACAAACACACAAACACGCACGCACA [CACACA_site6349]
9.6
16. TAATAATACCCAAGCACACACACACCCATATATATA [CACACA_site4831]
10
17. TGAGTATATAAATACACACACATATATATATTTTAA [CACACA_site5130]
9.61
18. TGGTAATACCCATACACACACACATACCCATATATA [CACACA_site5509]
10.1
19. CGCACCCACAGACACACACACACATATATATATATA [CACACA_site2202]
10.2
20. TATAAAAATAAAAAAAGTACACATAAAAATATATAT [XGTACX_site5189]
9.62
21. TATCATTTCATATCAAGTACAAACATTTTACATATA [XGTACX_site5307]
9.12
22. AAAATACATAAACACACACACACACCGATATATATA [CACACA_site9186]
10.3
23. TATACATACAGACCCACACACAAAAAAAAAAAAAAA [CACACA_site6536]
9.38
24. TGATAATAAGCATACACACACACACCCAAAAAAAAA [CACACA_site721]
10.2
25. AAAATTTTTAGTTATACACACAACATAGAAAATATT [CACACA_site328]
9.47
26. TAATAAATAAATGACACACACACACGCAAAAAAAAA [CACACA_site7275]
10.1
27. TACATACATACATACACACACACATATAAATACATA [CACACA_site4626]
10.2
28. TACATATAAAAGTACACACACACACCCATATATATA [CACACA_site941]
10.2
29. ATAATATAAATATACACACACACATATATATATATA [CACACA_site2905]
9.91
30. CACCCCCACAGACACACACACACACCCATATATATA [CACACA_site364]
10.3
31. ACCATATAAATAAACACACACACACCGATATATATA [CACACA_site5310]
10.1
32. TACCTATACAGACACACACACACACGCCCACAAAAA [CACACA_site6375]
10.3
33. AATACATATAAAAGTACACACACACCCATATATATA [CACACA_site8220]
10.2
34. ACACGCACATATATATAAATATATATATATATAAAT [CACACA_negctrl_site1781]
9.21
35. CATAAATACATACATACACACATATATATATATATA [CACACA_site2106]
9.5
36. TTTCGATTAAAAATTGTACAATATAAGGAGCACACA [GTGCAC_negctrl_site476]
9.31
37. CATATATAAATATATACACACATACATACATACATA [CACACA_site5988]
9.67
38. ATATAATGATGGAAAAGAAAAGAAATAAAAAAAAAA [CACACA_negctrl_site1170]
9.21

====

# Tested on: PF3D7_0420300 AP2 domain 1 (GST-tagged)
# test.method.notes: gcPBM binding intensity (ln(normalized median fluorescence intensity)); higher = stronger DNA binding
In all, about 25,000 sequences were measured (“ln(normalized median fluorescence intensity)”: median about 9.3, highest 2% from about 10 on). Only a selection was taken, and the highest values are over-represented in it overall.
Each entry below carries its recorded gcPBM binding intensity (ln).
outcome.measure: gcPBM binding intensity (ln)

1. ATATATATATAGTGCACACTTAAGAATATAAAGAGG [CACACA_site1151]
9.45
2. AAGAGAAATGGGCACACACACACATATTATATATAT [CACACA_site1531]
10.1
3. TTTGTTATGGTTTTCTCACACATATATATATATATA [CACACA_site4617]
9.5
4. TTTATTTAATTCATTGCATGTAATTTTTGTGTCCAC [TGCATGCA_site677]
9.21
5. AAAAGAGAAATGGGCACACACACACCGATTATATAT [CACACA_site4942]
10.2
6. AAAAGAGAAATGGGCACACACACACCCATTATATAT [CACACA_site1530]
9.88
7. ATTATGCACGGACACACACACACACCCCTAAAAAAT [CACACA_site5426]
10.2
8. AAGAGAAATGGGCACACACACACATATTATAGATAT [CACACA_site6828]
10.2
9. GAGAAATGGGGACACACACACATATTATAGATATAT [CACACA_site6829]
10.1

====

# Tested on: PF3D7_0420300 AP2 domain 1 (GST-tagged)
# test.method.notes: gcPBM binding intensity (ln(normalized median fluorescence intensity)); higher = stronger DNA binding
Over roughly 25,000 sequences, “ln(normalized median fluorescence intensity)” has its median near 9.3; the highest 2% begin near 10. The full list was thinned out, with the highest values kept by preference.
outcome.measure: gcPBM binding intensity (ln)

1) TAATATTATTATTTTACACACTTTTTTCCTTTTATC [CACACA_site2457]
9.45
2) ATATTATTGTAGAAATGTACATATATATATATATAT [XGTACX_site1882]
9.31
3) AAAAAAAAAAAAAAAAAAAAAAAAAAATGAGATACA [GTGCAC_negctrl_site160]
9.13
4) AGGAGACTTAAAAAAAGTACAAAAAAAAAAAAAAGC [XGTACX_site1576]
9.65
5) TTTATTTTCCAAAGGGTGCACATAGTTGAAACGATA
9.2
6) TTTTCAGAAAAGAGAAACTTTATTTTTCACAACCGA [TGCATGCA_negctrl_site389]
8.85
7) AAAACACAATTTATTACACACATATATTATATATTA [CACACA_site1420]
9.49
8) AAAAACGATTAATGTGTACACACATAGTTATAAACA [CACACA_site8659]
9.74
9) TATTTTATTATACCAAGTACAAAATTTAAATATGAA [XGTACX_site5478]
8.99

====

# System: PF3D7_0420300 AP2 domain 1 (GST-tagged)
# test.method.notes: gcPBM binding intensity (ln(normalized median fluorescence intensity)); higher = stronger DNA binding
Over roughly 25,000 sequences, “ln(normalized median fluorescence intensity)” has its median near 9.3; the highest 2% begin near 10. Many of the other results were omitted from the sample, so the highest values are more common in it than they were.
outcome.measure: gcPBM binding intensity (ln)

1) ATAAAAAGGAAACACACACACACACCCATATATATA [CACACA_site904]
10.2
2) GTAGAGCATAATAAAACACACACATACATACATATA [CACACA_site8217]
9.84
3) ATAAAAAAAGGACACACACACATATATATATATATA [CACACA_site5662]
9.93
4) CATATAAAAGGACACACACACACATATATATATATA [CACACA_site4674]
10
5) ATTTATTTATATAATACACACAAATATCTTAATGAA [CACACA_site6064]
9.39
6) AAAAAGTGATTAAAATGTACAAAATGCATAAAAGAA [XGTACX_site6625]
9.6
7) TTTTTTTTTACTTGTTGTACTTTTTCAAGGTATTGT [XGTACX_site7778]
9.42
8) GGAAGGATATAACATACACACACACCCATATATATA [CACACA_site9376]
10
9) TACACCCACCAACACACACACACACCCAAAAAAAAA [CACACA_site498]
10.1
10) TATATATAGAAACACACACACACACCCAAGCGTAGC [CACACA_site63]
10.2
11) CATATAAAAAATATGGTGCAGTTTTTTTTTTTTTTT
9.1
12) TATATATAGAAACACACACACACCAAAGCGTAGCGC [CACACA_site62]
10
13) TAATATTTTATTTTTGTTGTGGATCCAAAAAAAAAA [CACACA_negctrl_site846]
8.76
14) TAACCATACATACATACACACACACCCACATATATA [CACACA_site8951]
10.1
15) TTAAACTTGAAACACACACACACACCGATATAAAAA [CACACA_site4578]
10.2
16) TATATATAGAAACACACACACACATATATATATATA [CACACA_site4116]
9.96
17) TTTTGTCTTATATGTTGTACAACGTAAACAAAAAAA [XGTACX_site4412]
8.84
18) AAATGAATAAATAGGTCACACACAAATATATATAAA [CACACA_site8764]
9.91
19) TAATTTTTTTAAAAGCGTACATTTAAAAAAAAATAT [XGTACX_site2736]
8.76
20) TTTCATTTCACAGACACACACACACCCTATATTTCC [CACACA_site3906]
10.2
21) TATAATAAAATTTTTACACACTTTAAAAAAAAAAAA [CACACA_site524]
9.06
22) TTAAACTTGAAACACACACACACACCCATATAAAAA [CACACA_site758]
10.1
23) TCATTTCACAGACACACACACACAAGATATTTCCTT [CACACA_site7774]
10
24) TATTTGGGTATTTTTACACACATTAAAATATATATA [CACACA_site5800]
9.33
25) ATAAAATATTTTTGAACATGCAGGTAAAAAATAAAA [TGCATGCA_site1019]
9.27
26) ATATATATATATCACGCACACACGAATTTTAAATAT [CACACA_site3131]
9.65
27) TAGTAGTTATCACTAACATGCAATAATATTATTTAA [TGCATGCA_site161]
9.08
28) AAAAAAAAAAAACATACACACAAATAAATACATACA [CACACA_site6073]
9.9
29) ATATATACATATAACACACACATATATATATATATA [CACACA_site2575]
9.56
30) AAGGATATAACATACACACACACACCCATATATATA [CACACA_site4142]
10.3
31) AGCACCCACCAACACACACACACACCCACCCACCGA [CACACA_site368]
10.3
32) AAGTGTCAAAGTTACACACACAAACTTGTCATTTTT [CACACA_site837]
9.75
33) TTAATATATTAAATCTTACACACTAAAAAATATGTA [CACACA_site307]
9.16
34) TTTTTAAAAAAAAATAGAGAGTCAAAGTATGTGGCG [CACACA_negctrl_site194]
9.32
35) AAAAAATTAAAAATCACACATAAATATATATAAAAA [CACACA_site4192]
9.48
36) GTAACATACACATATACACACACACCGATATACATA [CACACA_site8278]
10.2
37) TTATAAAATAAACTTACACACATGAAATATTATATT [CACACA_site1945]
9.49
38) CAAAGACACAAACACACACACACATACATACATACA [CACACA_site453]
10.1
39) ATATAATATATATATAAACACACAAAAAAAATTATA [CACACA_site8434]
9.63
